- test-target: human ether-à-go-go-related gene (hERG) potassium channel (human);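 note: peak tail current of the secondary pulse compared with the same well before compound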
- Sequence (Q12809 whole entry, looked up): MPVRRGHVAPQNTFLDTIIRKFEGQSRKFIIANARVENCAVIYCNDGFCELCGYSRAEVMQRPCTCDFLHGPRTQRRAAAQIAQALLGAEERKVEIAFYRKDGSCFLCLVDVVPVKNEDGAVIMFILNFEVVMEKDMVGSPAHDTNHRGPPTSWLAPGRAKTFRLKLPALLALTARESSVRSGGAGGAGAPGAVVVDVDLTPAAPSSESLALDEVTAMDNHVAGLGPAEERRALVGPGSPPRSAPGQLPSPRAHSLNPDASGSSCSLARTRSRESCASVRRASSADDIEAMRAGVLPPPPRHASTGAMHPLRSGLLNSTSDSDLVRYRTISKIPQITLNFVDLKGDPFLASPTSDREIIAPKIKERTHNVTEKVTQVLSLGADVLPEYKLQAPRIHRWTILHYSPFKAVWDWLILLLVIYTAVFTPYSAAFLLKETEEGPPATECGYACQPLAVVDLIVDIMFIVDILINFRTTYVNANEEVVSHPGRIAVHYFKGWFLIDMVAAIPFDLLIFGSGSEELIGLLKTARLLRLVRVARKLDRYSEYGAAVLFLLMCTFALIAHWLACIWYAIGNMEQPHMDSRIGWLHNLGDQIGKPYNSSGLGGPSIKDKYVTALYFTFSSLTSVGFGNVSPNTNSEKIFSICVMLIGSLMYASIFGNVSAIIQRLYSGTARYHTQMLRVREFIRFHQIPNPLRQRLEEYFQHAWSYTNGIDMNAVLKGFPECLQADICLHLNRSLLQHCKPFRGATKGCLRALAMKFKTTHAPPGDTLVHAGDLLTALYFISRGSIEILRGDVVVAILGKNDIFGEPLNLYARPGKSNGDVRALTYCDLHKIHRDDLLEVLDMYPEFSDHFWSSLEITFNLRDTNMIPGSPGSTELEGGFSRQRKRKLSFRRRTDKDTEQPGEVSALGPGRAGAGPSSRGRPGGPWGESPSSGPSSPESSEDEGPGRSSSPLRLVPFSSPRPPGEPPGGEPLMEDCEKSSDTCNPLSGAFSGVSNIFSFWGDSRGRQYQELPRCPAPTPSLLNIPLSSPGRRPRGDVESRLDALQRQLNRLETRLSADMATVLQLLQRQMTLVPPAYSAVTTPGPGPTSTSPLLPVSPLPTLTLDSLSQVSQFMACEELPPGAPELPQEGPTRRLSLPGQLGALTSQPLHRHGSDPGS
- assay: primary screen, population patch clamp on CHO cells stably expressing hERG; higher = less effect of the substance
The whole screen tested about 310,000 compounds, of which about 14,000 (4.5%) showed an effect of 50% or more. The effect is printed as a negative number. This excerpt belongs to a sample that is enriched for strong results.
experimental-endpoint: hERG current change (%, negative = inhibition) at 10uM
Answer format: number, then unit.

hERG current change (%, negative = inhibition) at 10uM in this record for `C=CCn1c(COc2ccc(Cl)cc2)nnc1SCC(=O)Nc1ccc(S(N)(=O)=O)cc1` : -9.02%

hERG current change (%, negative = inhibition) at 10uM in this record for `Cc1cc(C)cc(OCC(=O)O/N=C(\N)c2ccccc2Cl)c1` : -13.6%

hERG current change (%, negative = inhibition) at 10uM in this record for `OCCCNc1ncnc2sc3c(c12)CCN(Cc1ccccc1)C3` : -37.9%

hERG current change (%, negative = inhibition) at 10uM in this record for `Cc1c(C(=O)OCC(=O)N(C)CC(=O)Nc2ccc(F)cc2)oc2ccccc12` : 14.3%

hERG current change (%, negative = inhibition) at 10uM in this record for Fc1ccc(NC(=S)NC2CC3CCC(C2)N3Cc2ccco2)cc1 (stereo not drawn) : -12.6%

hERG current change (%, negative = inhibition) at 10uM in this record for `C=CCn1c(SCC(=O)Nc2ccc3c(c2)CCC3)nnc1-c1cccs1` : -76.9%

hERG current change (%, negative = inhibition) at 10uM in this record for `O=C(O)/C=C/C(=O)Nc1ccc(OC(F)(F)F)cc1Br` : 15.7%

hERG current change (%, negative = inhibition) at 10uM in this record for `CN(C)Cc1c(C(=O)N/N=C/CCc2ccccc2)nnn1-c1nonc1N` : -31.1%

hERG current change (%, negative = inhibition) at 10uM in this record for `O=C(O)CCCC(=O)NCc1ccccn1` : 11.1%

hERG current change (%, negative = inhibition) at 10uM in this record for CCc1ccccc1NC(=S)NC1CC2CCCC(C1)N2Cc1cccs1 (stereo not drawn) : -4.03%

hERG current change (%, negative = inhibition) at 10uM in this record for CC(NC(=O)/C=C/c1ccco1)c1nc2ccccc2n1Cc1cccc(Cl)c1 (stereo not drawn) : -67.2%

hERG current change (%, negative = inhibition) at 10uM in this record for `COc1ccc(OC)c(/C=C/C(=O)OCC(=O)Nc2ccc3c(c2)OCCO3)c1` : 15.9%

hERG current change (%, negative = inhibition) at 10uM in this record for `CC(=O)Nc1ccc(Oc2ccc(NC(C)=O)c(NC(C)=O)c2)cc1` : 1.5%

hERG current change (%, negative = inhibition) at 10uM in this record for `CCOc1ccc(C(=O)Nn2cnnc2)cc1` : 2.29%

hERG current change (%, negative = inhibition) at 10uM in this record for `COc1ccccc1NS(=O)(=O)c1cccc(N=C2N=C(N)c3ccccc32)c1` : 11.7%

hERG current change (%, negative = inhibition) at 10uM in this record for Fc1ccc(NC(=S)NC2CC3CCCC(C2)N3Cc2cccs2)cc1 (stereo not drawn) : -59.5%

hERG current change (%, negative = inhibition) at 10uM in this record for C=CCNC(=O)CN1C(=O)NC(C)(c2ccc(OC)cc2)C1=O (stereo not drawn) : -14.2%

hERG current change (%, negative = inhibition) at 10uM in this record for `CCCCNc1ncnc2sc3c(c12)CCN(CCC)C3` : -76%

hERG current change (%, negative = inhibition) at 10uM in this record for Cc1cccc(NC(=S)NC2CC3CCCC(C2)N3Cc2cccs2)c1C (stereo not drawn) : -37.9%

hERG current change (%, negative = inhibition) at 10uM in this record for CCCCn1c(N)c(N(CCC(C)C)C(=O)C(C)N2C(=O)c3ccccc3C2=O)c(=O)[nH]c1=O (stereo not drawn) : 8.31%

hERG current change (%, negative = inhibition) at 10uM in this record for `CCN(CC)C(=O)CSc1nc(N)c(C#N)c(-c2cccs2)c1C#N` : 15.5%

hERG current change (%, negative = inhibition) at 10uM in this record for CC(C)CNC(=S)NC1CC2CCCC(C1)N2Cc1cccs1 (stereo not drawn) : -34.8%

hERG current change (%, negative = inhibition) at 10uM in this record for Cc1cccc(NC(=S)NC2CC3CCCC(C2)N3Cc2cccs2)c1 (stereo not drawn) : -35.9%

hERG current change (%, negative = inhibition) at 10uM in this record for CC1CCc2c(sc3ncnc(N4CCOCC4)c23)C1 (stereo not drawn) : -16.6%

hERG current change (%, negative = inhibition) at 10uM in this record for `CCCCn1c(NCc2cccs2)nc2ccccc21` : -55.9%

hERG current change (%, negative = inhibition) at 10uM in this record for `CCCC[C@@H]1CNC(=S)N1CCCC` : 11%

hERG current change (%, negative = inhibition) at 10uM in this record for `CN(C)S(=O)(=O)c1ccc(N/C=C(\[N+](=O)[O-])S(=O)(=O)c2ccccc2)cc1` : 15.2%

hERG current change (%, negative = inhibition) at 10uM in this record for Cc1cc(C)cc(NC(=S)NC2CC3CCCC(C2)N3Cc2cccs2)c1 (stereo not drawn) : -52.9%

hERG current change (%, negative = inhibition) at 10uM in this record for `CCn1c(NCc2cccs2)nc2ccccc21` : -12.2%

hERG current change (%, negative = inhibition) at 10uM in this record for `Oc1ccccc1N=N/C(=N/Nc1ccccc1O)c1ccccc1` : 8.83%

hERG current change (%, negative = inhibition) at 10uM in this record for `c1cn(CCCNc2ncnc3sc4c(c23)CCC4)cn1` : -37.5%

hERG current change (%, negative = inhibition) at 10uM in this record for `CCOc1ncccc1C(=O)OCC(=O)Nc1ccc2c(c1)OCO2` : 12.6%

hERG current change (%, negative = inhibition) at 10uM in this record for `Cc1ccccc1CNC(=O)/C=C\C(=O)O` : 3.23%

hERG current change (%, negative = inhibition) at 10uM in this record for `Cc1cc(F)ccc1NS(=O)(=O)c1c(C)nc2scc(C)n2c1=O` : -35.8%

hERG current change (%, negative = inhibition) at 10uM in this record for CC(=O)c1ccc(C(=O)N2CCCC(C(=O)c3cc(F)ccc3F)C2)s1 (stereo not drawn) : 2.88%

hERG current change (%, negative = inhibition) at 10uM in this record for `COc1cccc2cc(C(=O)NCCC3=CCCCC3)c(=O)oc12` : 2.79%

hERG current change (%, negative = inhibition) at 10uM in this record for `Cc1ccc(NC(=O)COC(=O)[C@H](C)NC(N)=O)c(C)c1` : 15.1%

hERG current change (%, negative = inhibition) at 10uM in this record for CC(NC(=O)/C=C/c1ccco1)c1nc2ccccc2n1Cc1c(Cl)cccc1Cl (stereo not drawn) : -11%

hERG current change (%, negative = inhibition) at 10uM in this record for `c1ccc(Cn2c(NCc3ccccn3)nc3ccccc32)cc1` : -39%

hERG current change (%, negative = inhibition) at 10uM in this record for O=C(O)C(Cc1ccccc1)N1C(=O)c2c(Cl)c(Cl)c(Cl)c(Cl)c2C1=O (stereo not drawn) : 3%

hERG current change (%, negative = inhibition) at 10uM in this record for `c1ccc(Cn2c(NCc3ccco3)nc3ccccc32)cc1` : -51%

hERG current change (%, negative = inhibition) at 10uM in this record for `COc1ccc(Cn2c(O)c(C=Nc3ccc(C)cc3)c3ccccc3c2=O)cc1` : 2.35%
